I'd be grateful if you could share measured IC50 for these entries.
# tested_system: Menin MLL 4-43 (Homo sapiens, UniProt O00255)
# protocol_details: Fluorescence polarization (FP) competition assay of the menin-MLL interaction
# Format: binding
# test_settings: fluorescence polarization assay; read-out: Menin MLL 4-43 IC50

Parameter requested: IC50. Apply to each item below.
1. CNc1nc(NC2CCN(Cc3ccc4c(cc(C#N)n4CC(C)C4CCN(S(C)(=O)=O)CC4)c3C)CC2)c2cc(CC(F)(F)F)sc2n1 (stereo not drawn)
2. CNc1nc(NC2CCN(Cc3ccc4c(cc(C#N)n4C[C@H](C)N4CCN(S(=O)(=O)C(C)C)CC4)c3C)CC2)c2cc(CC(F)(F)F)sc2n1
3. Cc1c(CN2CCC(Nc3ncnc4sc(CC(F)(F)F)cc34)CC2)ccc2c1cc(C#N)n2CCN1C[C@@H](C)N(S(C)(=O)=O)[C@H](C)C1

a:
< 50 nM
< 50 nM
50 to 250 nM

Parameter requested: IC50. Apply to each item below.
1. CNS(=O)(=O)N1CCN([C@@H](C)Cn2c(C#N)cc3cc(CN4CCC(Nc5nc(N)nc6sc(CC(F)(F)F)cc56)CC4)c(O)cc32)CC1
2. Cc1c(CN2CCC(Nc3ncnc4sc(CC(F)(F)F)cc34)CC2)ccc2c1cc(C#N)n2C[C@H](C)N1CCN(C=O)CC1
3. Cc1c(CN2CCC(Nc3ncnc4sc(CC(F)(F)F)cc34)CC2)ccc2c1cc(C#N)n2C[C@H](C)N1CCN(S(C)(=O)=O)[C@@H](C)C1

a:
< 50 nM
< 50 nM
< 50 nM

====

# tested_system: Menin MLL 4-43 (Homo sapiens, UniProt O00255)
# Sequence (O00255 1-610): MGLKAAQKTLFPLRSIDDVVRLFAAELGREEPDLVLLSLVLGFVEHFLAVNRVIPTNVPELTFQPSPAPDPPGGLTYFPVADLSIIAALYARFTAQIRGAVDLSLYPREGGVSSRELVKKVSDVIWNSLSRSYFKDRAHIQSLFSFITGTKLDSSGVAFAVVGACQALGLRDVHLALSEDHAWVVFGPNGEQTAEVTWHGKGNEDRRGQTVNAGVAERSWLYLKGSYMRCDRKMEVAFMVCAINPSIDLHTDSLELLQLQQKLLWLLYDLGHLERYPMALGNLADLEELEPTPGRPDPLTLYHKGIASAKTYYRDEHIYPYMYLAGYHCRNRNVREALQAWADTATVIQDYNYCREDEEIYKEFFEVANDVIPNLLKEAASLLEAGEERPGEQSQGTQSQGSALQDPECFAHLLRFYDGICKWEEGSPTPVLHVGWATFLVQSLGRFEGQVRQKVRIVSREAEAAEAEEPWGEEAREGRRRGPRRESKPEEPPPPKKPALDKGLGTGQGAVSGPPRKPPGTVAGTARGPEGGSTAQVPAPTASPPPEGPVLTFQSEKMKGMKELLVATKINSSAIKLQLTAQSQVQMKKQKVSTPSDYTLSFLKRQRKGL
# protocol_details: Fluorescence polarization (FP) competition assay of the menin-MLL interaction
# Type: binding
# test_settings: fluorescence polarization assay; read-out: Menin MLL 4-43 IC50
observable: IC50

Summary for this compound, Cc1c(CN2CCC(Nc3ncnc4sc(CC(F)(F)F)cc34)CC2)ccc2c1cc(C#N)n2CC(C)N1C[C@@H](C)N(S(C)(=O)=O)[C@@H](C)C1 (stereo partly drawn) : IC50 is < 50 nM

Summary for this compound, Cc1c(CN2CCC(Nc3ncnc4sc(CC(F)(F)F)cc34)CC2)ccc2c1cc(C#N)n2CC(C)(C)N1CCN(S(C)(=O)=O)CC1 : IC50 is > 1000 nM

Summary for this compound, CNc1nc(NC2CCN(Cc3ccc4c(cc(C#N)n4C[C@H](C)N4CCN(S(C)(=O)=O)CC4)c3C)CC2)c2c(C)c(CC(F)(F)F)sc2n1 : IC50 is > 1000 nM

Summary for this compound, CCCNS(=O)(=O)N1CCN([C@@H](C)Cn2c(C#N)cc3c(C)c(CN4CCC(Nc5ncnc6sc(CC(F)(F)F)cc56)CC4)ccc32)CC1 : IC50 is < 50 nM

Summary for this compound, Cc1c(CN2CCC(Nc3ncnc4sc(CC(F)(F)F)cc34)CC2)ccc2c1cc(C#N)n2CC(C)N1CCN(S(C)(=O)=O)C(C)C1 (stereo not drawn) : IC50 is 50 to 250 nM

Parameter requested: IC50. Apply to each item below.
1. Cc1c(CN2CCC(Nc3ncnc4sc(CC(F)(F)F)cc34)CC2)ccc2c1cc(C#N)n2C[C@H](C)N1CCN(S(=O)(=O)NCC(F)F)CC1
2. Cc1c(CN2CCC(Nc3ncnc4sc(CC(F)(F)F)cc34)CC2)ccc2c1cc(C#N)n2CCN1CCC2(CC1)CN(S(C)(=O)=O)C2
3. COCC(=O)N1CCN([C@@H](C)Cn2c(C#N)cc3c(C)c(CN4CCC(Nc5ncnc6sc(CC(F)(F)F)cc56)CC4)ccc32)CC1
4. CNC(=O)C1CN([C@@H](C)Cn2c(C#N)cc3c(C)c(CN4CCC(Nc5nc(NC)nc6sc(CC(F)(F)F)cc56)CC4)ccc32)CCO1 (stereo partly drawn)
5. CNc1nc(NC2CCN(Cc3ccc4c(cc(C#N)n4C[C@H](C)N4CCC(NS(C)(=O)=O)CC4)c3C)CC2)c2cc(CC(F)(F)F)sc2n1
6. CNC(=O)N1CCN([C@@H](C)Cn2c(C#N)cc3c(C)c(CN4CCC(Nc5ncnc6sc(CC(F)(F)F)cc56)CC4)ccc32)CC1

a:
50 to 250 nM
50 to 250 nM
50 to 250 nM
< 50 nM
< 50 nM
50 to 250 nM

Summary for this compound, Cc1c(CN2CCC(Nc3ncnc4sc(CC(F)(F)F)cc34)CC2)ccc2c1cc(C#N)n2C[C@@H](C)N1CCN(S(C)(=O)=O)[C@H](C)C1 : IC50 is < 50 nM
